pIC50: −log10 of the molar value.
Field pIC50: reported value for PIK3CD (Human); entries drawn from several documents.
EXPERIMENTAL_READOUT: pIC50

[a] COc1ncc(-c2nc(N3CCOCC3)nc3c(CN4CCS(=O)(=O)CC4)c(C)sc23)cc1NS(C)(=O)=O
[b] C[C@H](Nc1ccc2c(c1)OCCn1cc(N3C(=O)OC[C@H]3CC#N)nc1-2)C(N)=O
[c] CC(C)(C)c1ncc2c(n1)-c1sc(NC(=O)N3CCC3C(N)=O)nc1CC2 (stereo not shown)
**Query** Could you arrange the 3 compounds above by pIC50, starting with the largest number? Provide the labels, sequenced as the question asks.
**Result** a, c, b
